protocol: Pharmacokinetic (PK) studies in Balb/C nude mice via intraperitoneal injection
reportedConditions: male, Balb/c nude, mouse, plasma, ip, 15 mg/kg, Calculated Concentration, IP 15 mg/kg, Balb/C nude mice, 4 h, individual mice
observedProperty: concentration at 4 h (ng/mL)
One number for each entry, in ng/mL.

# compound, scaleUnit, concentration at 4 h
data = [
    ("CN(C)C(=O)[C@H]1Cc2c([nH]c3ccccc23)[C@H](c2ccc([Si](C)(C)C)cc2)N1C(=O)CCl", "ng/mL", 16.6),
]

Now turn to the next compound.
Q: Tell me measured concentration at 4 h for COC(=O)c1ccc([C@H]2c3[nH]c4ccccc4c3C[C@H](C(=O)OC)N2C(=O)CCl)cc1 [Example K601, RSL3, reference compound] please.
Result: 1.63
